Test system: lambsquarters (Chenopodium album)
protocol: Test C preemergence
Format: in vivo
condition-set: 250 g ai/ha, scale 0 to 100, 0 no effect, 100 complete control
Measured Plant response rating, Lambsquarters by item
parameter-measured: Plant response rating, Lambsquarters

>>> value_reported("CC(C)Oc1cccc(C2CN(C)C(=O)C2C(=O)Nc2cccc(F)c2F)c1 (centres unmarked) [Compound 651]")
100
>>> value_reported("O=C1NCC(c2ccc(Br)cc2)C1C(=O)Nc1cccc(F)c1F (centres unmarked) [Compound 446]")
95
>>> value_reported("CN1CC(c2ccc(F)c(C(F)(F)F)c2)C(C(=O)Nc2ccccc2S(C)(=O)=O)C1=O (centres unmarked) [Compound 612]")
70
>>> value_reported("Cc1ccc(C2CN(C)C(=O)C2C(=O)Nc2ccccc2C(F)(F)F)cc1 (centres unmarked) [Compound 665]")
85
>>> value_reported("CN1CC(c2cccc(OC(F)F)c2)C(C(=O)Nc2ccc(F)cc2F)C1=O (centres unmarked) [Compound 617]")
80

----------
Test system: Kochia (Kochia scoparia)
protocol: Test A postemergence
Format: in vivo
condition-set: Bassia scoparia, post-emergence, 240 h, 125 g ai/ha, postemergence; visual injury on 0 to 100 scale (0 no effect, 100 complete control), approx. 10 d; read-out: Kochia plant response rating
parameter-measured: pest or weed control at 125 g/ha (%)

>>> value_reported("O=C(Nc1cccc(F)c1F)[C@H]1C(=S)NC[C@@H]1c1ccc(C(F)(F)F)cc1 (racemic) [Compound 1048]")
30
>>> value_reported("O=C(Nc1ccc(F)c(F)c1F)[C@H]1C(=O)N(O)CC[C@@H]1c1ccc(C(F)(F)F)cc1 [Compound 1108]")
0
>>> value_reported("CN1C[C@H](c2ccc(F)c(F)c2)[C@@H](C(=S)Nc2ccccc2F)C1=O (racemic) [Compound 1153]")
0
>>> value_reported("CN1C[C@H](c2cc(F)cc(F)c2)[C@@H](C(=O)Nc2ccncc2F)C1=O [Compound 1095]")
0
>>> value_reported("Cc1ccc([C@H]2CN(C)C(=O)[C@@H]2C(=O)Nc2ccccc2F)cc1C [Compound 1038]")
40
>>> value_reported("CN1C[C@H](c2csc3c2CCOC3)[C@@H](C(=O)Nc2ccccc2S(C)(=O)=O)C1=O [Compound 1078]")
0
>>> value_reported("CN1C[C@H](c2csc3c2CCOC3)[C@@H](C(=O)Nc2ccc(F)c(F)c2F)C1=O [Compound 1077]")
0
>>> value_reported("Cc1cc([C@H]2CN(C)C(=O)[C@@H]2C(=O)Nc2ccccc2S(C)(=O)=O)ccc1Br [Compound 1102]")
0

----------
Measured pest or weed control at 500 g/ha by item
Tested on: ryegrass, Italian (Italian ryegrass, Lolium multiflorum)
protocol: Test A preemergence
Format: in vivo
condition-set: Lolium multiflorum, pre-emergence, 240 h, 500 g ai/ha, preemergence; visual injury rating about 10 d after treatment, 0 to 100 scale (0 no effect, 100 complete control); read-out: Ryegrass, Italian plant response rating
parameter-measured: pest or weed control at 500 g/ha (%)

>>> value_reported("CSc1ccccc1NC(=O)[C@H]1C(=O)NC[C@@H]1c1cc(F)cc(Cl)c1 [Compound 977]")
40
>>> value_reported("Cc1ccc([C@H]2CNC(=S)[C@@H]2C(=O)Nc2cccc(F)c2F)cc1 (racemic) [Compound 946]")
0
>>> value_reported("CN1C[C@H](c2cc(F)cc(F)c2)[C@@H](C(=O)Nc2cnccc2Cl)C1=O [Compound 1096]")
0
>>> value_reported("O=C1NC[C@H](c2ccc3c(c2)CCC3)[C@H]1C(=O)Nc1ccccc1F [Compound 1045]")
70
>>> value_reported("COc1ccc([C@H]2CN(C)C(=O)[C@@H]2C(=O)Nc2ccccc2SC)cc1C(F)(F)F [Compound 991]")
50
>>> value_reported("O=C1NC[C@H](c2ccc3c(c2)OCO3)[C@H]1C(=O)Nc1ccc(F)c(F)c1F [Compound 1027]")
0
>>> value_reported("Cc1ccc([C@H]2CCNC(=O)[C@@H]2C(=O)Nc2cccc(F)c2F)cc1 [Compound 973]")
30
>>> value_reported("Cc1cc([C@H]2CN(C)C(=O)[C@@H]2C(=O)Nc2cccc(F)c2F)cc(C)c1Br [Compound 1024]")
90

----------
Tested on: pigweed (Amaranthus retroflexus)
protocol: Test A preemergence
Assay type: in vivo
condition-set: Amaranthus retroflexus, pre-emergence, 240 h, 500 g ai/ha, preemergence; 0 to 100 scale where 0 is no effect and 100 is complete control; read-out: Pigweed plant response rating
Classify by measured pest or weed control at 500 g/ha: TRUE if it is equal to or exceeds 30%, FALSE if it is smaller.

>>> label_value("Cc1cc(F)cc([C@H]2CNC(=O)[C@@H]2C(=O)Nc2cccc(F)c2C)c1 [Compound 1308]")
"FALSE"
>>> label_value("CN1C[C@H](c2ccc(C(F)(F)F)cc2)[C@](F)(C(=O)Nc2cccc(F)c2F)C1=O (racemic) [Compound 1152]")
"TRUE"
>>> label_value("COc1ccc([C@H]2CN(C)C(=O)[C@@H]2C(=O)Nc2ccccc2SC)c(OC)c1 [Compound 1216]")
"FALSE"
>>> label_value("Cc1c(F)cccc1NC(=O)[C@H]1C(=O)NC[C@@H]1c1cc(F)c(F)c(F)c1 [Compound 1125]")
"TRUE"
>>> label_value("Cc1cc([C@H]2CN(C)C(=O)[C@@H]2C(=O)Nc2cccc(F)c2F)on1 [Compound 1196]")
"FALSE"
>>> label_value("O=C1NC[C@H](c2ccc(F)c(OC(F)(F)C(F)F)c2)[C@H]1C(=O)Nc1cccc(F)c1F [Compound 1131]")
"TRUE"
>>> label_value("CN1CC[C@H](c2ccc(C(F)(F)F)cc2)[C@@H](C(=O)Nc2cccc(Cl)c2F)C1=O [Compound 1228]")
"TRUE"
>>> label_value("CN1C[C@H](c2ccc3c(c2)OCO3)[C@@H](C(=O)Nc2cccc(F)c2F)C1=O [Compound 1126]")
"TRUE"

----------
System: giant foxtail (Setaria faberii)
protocol: Test A preemergence
Assay type: in vivo
condition-set: 125 g ai/ha, Preemergence; visual injury after approximately 10 d; 0 to 100 scale where 0 is no effect and 100 is complete control
Measured Plant response rating, Foxtail, Giant by item
parameter-measured: Plant response rating, Foxtail, Giant

>>> value_reported("COc1ccc(N2CC(c3cccc(C(F)(F)F)c3)C(C(=O)Nc3ccccc3F)C2=O)cc1 (stereo not shown)")
0
>>> value_reported("CN1CC(c2cc(F)cc(F)c2)C(C(=O)Nc2ccc(F)cc2F)C1=O (stereo not shown)")
90
>>> value_reported("COCc1cccc(C2CNC(=O)C2C(=O)Nc2cccc(F)c2F)c1 (stereo not shown)")
90
>>> value_reported("O=C1NCC(c2ccc(Oc3ccccc3)cc2)C1C(=O)Nc1ccc(F)cc1F (racemic)")
0

----------
System: ragweed (common ragweed, Ambrosia elatior)
protocol: Test A preemergence
Format: in vivo
condition-set: 125 g ai/ha, preemergence; 0 to 100 scale (0 no effect, 100 complete control)
parameter-measured: Plant response rating, Ragweed

>>> value_reported("Cc1c(F)ccc(NC(=O)C2C(=O)NCC2c2cccc(C(F)(F)F)c2)c1F (centres unmarked) [Compound 463]")
0
>>> value_reported("Cc1cccc(C2CNC(=O)C2C(=O)Nc2ccccc2F)c1 (racemic) [Compound 372]")
0
>>> value_reported("CN1CC(c2ccc(F)cc2)C(C(=O)Nc2cccc(F)c2F)C1=O (centres unmarked) [Compound 438]")
60
>>> value_reported("Cc1cccc(C2CNC(=O)C2C(=O)Nc2ccccc2C(F)(F)F)c1 (racemic) [Compound 374]")
0
>>> value_reported("Cc1ccc(C2CNC(=O)C2C(=O)Nc2ccc(F)c(C)c2F)cc1F (centres unmarked) [Compound 462]")
10

----------
System: ryegrass, Italian (Italian ryegrass, Lolium multiflorum)
protocol: Test C preemergence
Type: in vivo
condition-set: 125 g ai/ha, scale 0 to 100, 0 no effect, 100 complete control
parameter-measured: Plant response rating, Ryegrass, Italian

>>> value_reported("CC(C)Oc1cccc(C2CN(C)C(=O)C2C(=O)Nc2ccccc2S(C)(=O)=O)c1 (stereo not shown)")
20
>>> value_reported("O=C1NCC(c2cccc(C(F)(F)F)c2F)C1C(=O)Nc1cccc(F)c1F (stereo not shown)")
35
>>> value_reported("CN1CC(c2cc(F)cc(F)c2)C(C(=O)Nc2cccc(F)c2F)C1=O (stereo not shown)")
65
>>> value_reported("Cc1ccc(C2CN(C)C(=O)C2C(=O)Nc2ccccc2C(F)(F)F)cc1 (stereo not shown)")
65
>>> value_reported("CN1CC(c2ccc(C(F)(F)F)c(F)c2)C(C(=O)Nc2ccccc2F)C1=O (stereo not shown)")
75
>>> value_reported("CN1CC(c2ccc(C(F)(F)F)c(F)c2)C(C(=O)Nc2cccc(F)c2F)C1=O (stereo not shown)")
30
>>> value_reported("CC(C)Oc1cccc(C2CN(C)C(=O)C2C(=O)Nc2cccc(F)c2F)c1 (stereo not shown)")
75
